compounds and their reported residual rate
Assay: Metabolic stability test
Type: in vitro ADME, human
Conditions: human, 30 min, 0.5 μmol/L, pH 7.4

Structure smiles: CCN1C(=O)c2c(O)c(=O)c(C(=O)NCc3ccc(F)cc3F)cn2N2[C@H]3COC[C@H]3C[C@@H]12
residual rate: 77.2

Structure smiles: CN1C(=O)c2c(O)c(=O)c(C(=O)NCc3cccc(Cl)c3F)cn2N2[C@H]3COC[C@H]3C[C@@H]12
residual rate: 101

Structure smiles: CCN1C(=O)c2c(O)c(=O)c(C(=O)NCc3cccc(Cl)c3F)cn2N2[C@H]3COC[C@H]3C[C@@H]12
residual rate: 61.6

Structure smiles: CC(C)N1C(=O)c2c(O)c(=O)c(C(=O)NCc3c(F)cc(F)cc3F)cn2N2[C@H]3COC[C@H]3C[C@@H]12
residual rate: 73.3

* * *

Tested on: HIV mutant strain 2 (E92Q/E138T/G140S/Q148H)
Test: Resistance evaluation test (HeLa-CD4 reporter), mutant strain 2
Format: cell-based
Conditions: FC=EC50 of mutant strain/EC50 of wild strain, HeLa-CD4 cells
Response field label takes yes (1) when FC mutant strain 2 is strictly below 30 and no (0) in all other cases.

Compound: CCN1C(=O)c2c(O)c(=O)c(C(=O)NCc3ccc(F)cc3)cn2N2CCCC[C@@H]12 [II-077]
Qualitative label: no (0)
//
Compound: CCN1C(=O)c2c(O)c(=O)c(C(=O)NCc3c(F)cc(F)cc3F)cn2N2C[C@@H]3CC[C@@H](O3)[C@@H]12 [II-046]
Qualitative label: yes (1)
//
Compound: COC[C@@H]1CC[C@H]2N(C(C)C)C(=O)c3c(O)c(=O)c(C(=O)NCc4ccccc4F)cn3N12 [II-009]
Qualitative label: yes (1)
//
Compound: CN1C(=O)c2c(O)c(=O)c(C(=O)NCc3cccc(Cl)c3F)cn2N2C[C@@H]3CC[C@@H](C3)[C@@H]12 [II-028]
Qualitative label: yes (1)
//
Compound: CCN1C(=O)c2c(O)c(=O)c(C(=O)NCc3ccc(F)cc3F)cn2N2[C@H]3COC[C@H]3C[C@@H]12 [II-136]
Qualitative label: no (0)
//
Compound: CN1C(=O)c2c(O)c(=O)c(C(=O)NCc3cccc(Cl)c3F)cn2N2CCCC[C@@H]12 [II-022]
Qualitative label: yes (1)
//
Compound: CN1C(=O)c2c(O)c(=O)c(C(=O)NCc3cccc(Cl)c3F)cn2N2[C@H]3COC[C@H]3C[C@@H]12 [II-133]
Qualitative label: yes (1)

* * *

# clearance annotations
Test: Clearance evaluation test
Assay type: in vivo
Details: rat, plasma, 1 umol/kg; rats, intravenous 1 μmol/kg; read-out: total body clearance (CLtot)

Structure smiles: CN1C(=O)c2c(O)c(=O)c(C(=O)NCc3ccc(F)cc3F)cn2N2CCCC[C@@H]12
clearance, mL/min/kg: 0.111
--
Structure smiles: CN1C(=O)c2c(O)c(=O)c(C(=O)NCc3cccc(Cl)c3F)cn2N2C[C@@H]3CC[C@@H](C3)[C@@H]12
clearance, mL/min/kg: 0.102

* * *

residual rate reference
Assay: Metabolic stability test
Type: in vitro ADME, human
Parameters: key: % remaining vs amount at 0 min (=100%)
Conditions: compound 0.5 μmol/L, human liver microsomes 0.5 mg protein/mL, NADPH, 37° C., 30 minutes; amount at 0 minutes defined as 100%
Description: Commercially available pooled human liver microsomes were reacted with the compound of the present invention for a certain time. A residual rate was calculated by the comparison between the reacted sample and an unreacted sample to evaluate the degree at which the compound of the present invention is metabolized in the liver. […] The compound of the present invention in the centrifugation supernatant was quantified by LC/MS/MS or solid-phase extraction (SPE)/MS. […]
Reported metric: residual rate

Compound: CCN1C(=O)c2c(O)c(=O)c(C(=O)NCc3ccc(F)cc3F)cn2N2C[C@@H](C)C[C@@H]12 [II-051]
Numeric readout: 96

Compound: CCN1C(=O)c2c(O)c(=O)c(C(=O)NCc3ccc(F)cc3F)cn2N2CC[C@H](C)C[C@@H]12 [II-071]
Numeric readout: 104

Compound: CC(C)N1C(=O)c2c(O)c(=O)c(C(=O)NCc3c(F)cc(F)cc3F)cn2N2C[C@@H]3CC[C@@H](O3)[C@@H]12 [II-005]
Numeric readout: 80.2

Compound: CCN1C(=O)c2c(O)c(=O)c(C(=O)NCc3c(F)cc(F)cc3F)cn2N2C[C@@H](C)CC[C@@H]12 [II-020]
Numeric readout: 90.7

Compound: COC[C@@H]1CC[C@H]2N(C)C(=O)c3c(O)c(=O)c(C(=O)NCc4cccc(Cl)c4F)cn3N12 [II-031]
Numeric readout: 86

Compound: CC(C)N1C(=O)c2c(O)c(=O)c(C(=O)NCc3ccc(F)cc3F)cn2N2C[C@@H]3CC[C@@H](O3)[C@@H]12 [II-021]
Numeric readout: 89.1

Compound: CN1C(=O)c2c(O)c(=O)c(C(=O)NCc3cccc(Cl)c3F)cn2N2CCCC[C@@H]12 [II-022]
Numeric readout: 101

* * *

Listed here: items and their measured residual rate.
Experiment: Metabolic stability test
Type: in vitro ADME, human
Design: key: % remaining vs amount at 0 min (=100%)
Conditions: compound 0.5 μmol/L, human liver microsomes 0.5 mg protein/mL, NADPH, 37° C., 30 minutes; amount at 0 minutes defined as 100%
Protocol: Commercially available pooled human liver microsomes were reacted with the compound of the present invention for a certain time. A residual rate was calculated by the comparison between the reacted sample and an unreacted sample to evaluate the degree at which the compound of the present invention is metabolized in the liver. […] The compound of the present invention in the centrifugation supernatant was quantified by LC/MS/MS or solid-phase extraction (SPE)/MS. […]
Reported metric: residual rate

Compound: C[C@H]1C[C@H]2N(C)C(=O)c3c(O)c(=O)c(C(=O)NCc4cccc(Cl)c4F)cn3N2C1 [II-042]
Reported metric: residual rate
Numeric readout: 97.4

Compound: CN1C(=O)c2c(O)c(=O)c(C(=O)NCc3cccc(Cl)c3F)cn2N2C[C@@H]3CC[C@@H](O3)[C@@H]12 [II-066]
Reported metric: residual rate
Numeric readout: 97.7

Compound: CN1C(=O)c2c(O)c(=O)c(C(=O)NCc3c(F)cc(F)cc3F)cn2N2CCCC[C@@H]12 [II-087]
Reported metric: residual rate
Numeric readout: 105

Compound: CN1C(=O)c2c(O)c(=O)c(C(=O)NCc3cccc(Cl)c3F)cn2N2CCOC[C@@H]12 [II-108]
Reported metric: residual rate
Numeric readout: 97.2

Compound: CCN1C(=O)c2c(O)c(=O)c(C(=O)NCc3c(F)cc(F)cc3F)cn2N2CCCC[C@@H]12 [Compound I-011]
Reported metric: residual rate
Numeric readout: 88

Compound: CCN1C(=O)c2c(O)c(=O)c(C(=O)NCc3c(F)cc(F)cc3F)cn2N2C[C@@H]3CC[C@@H](O3)[C@@H]12 [II-046]
Reported metric: residual rate
Numeric readout: 88.4

Compound: CCN1C(=O)c2c(O)c(=O)c(C(=O)NCc3ccc(F)cc3F)cn2N2C[C@@H]3CCC[C@@H](O3)[C@@H]12 [II-156]
Reported metric: residual rate
Numeric readout: 98.6

Compound: CN1C(=O)c2c(O)c(=O)c(C(=O)NCc3cccc(Cl)c3F)cn2N2CCCC[C@@]12C [II-099]
Reported metric: residual rate
Numeric readout: 88.6

Compound: CCN1C(=O)c2c(O)c(=O)c(C(=O)NCc3ccc(F)cc3F)cn2N2[C@H](COC)CC[C@@H]12 [II-093]
Reported metric: residual rate
Numeric readout: 97.5

* * *

Test: Clearance evaluation test
Type: in vivo
Conditions: rat, plasma, 1 umol/kg; rats, intravenous 1 μmol/kg; read-out: elimination half-life (t½) (converted)

Structure smiles: CN1C(=O)c2c(O)c(=O)c(C(=O)NCc3cccc(Cl)c3F)cn2N2C[C@@H]3CC[C@@H](C3)[C@@H]12
half-life: 26.7 h

Structure smiles: CN1C(=O)c2c(O)c(=O)c(C(=O)NCc3ccc(F)cc3F)cn2N2CCCC[C@@H]12
half-life: 12.3 h

* * *

Tested on: HIV mutant strain 2 (E92Q/E138T/G140S/Q148H)
Assay: Resistance evaluation test (HeLa-CD4 reporter), mutant strain 2
Type: cell-based
Conditions: FC=EC50 of mutant strain/EC50 of wild strain, HeLa-CD4 cells
Response field label takes 1 (yes) when FC mutant strain 2 is strictly below 20 and 0 (no) in all other cases.

Compound: CCN1C(=O)c2c(O)c(=O)c(C(=O)NCc3cccc(Cl)c3F)cn2N2[C@H]3COC[C@H]3C[C@@H]12 [II-060]
Qualitative label: 1 (yes)

Compound: CCN1C(=O)c2c(O)c(=O)c(C(=O)NCc3ccc(F)cc3F)cn2N2C[C@H](COC)C[C@@H]12 [II-105]
Qualitative label: 0 (no)

Compound: CC(C)N1C(=O)c2c(O)c(=O)c(C(=O)NCc3ccc(F)cc3F)cn2N2CCOC[C@@H]12 [II-026]
Qualitative label: 1 (yes)

Compound: CN1C(=O)c2c(O)c(=O)c(C(=O)NCc3cccc(Cl)c3F)cn2N2C[C@@H]3CCC[C@@H](C3)[C@@H]12 [II-153]
Qualitative label: 1 (yes)

Compound: CN1C(=O)c2c(O)c(=O)c(C(=O)NCc3cccc(Cl)c3F)cn2N2C[C@@H]3CC[C@@H](O3)[C@@H]12 [II-066]
Qualitative label: 1 (yes)

Compound: CCN1C(=O)c2c(O)c(=O)c(C(=O)NCc3ccc(F)cc3F)cn2N2C[C@@H]3CC[C@@H](O3)[C@@H]12 [II-102]
Qualitative label: 0 (no)

Compound: C[C@H]1C[C@H]2N(C)C(=O)c3c(O)c(=O)c(C(=O)NCc4cccc(Cl)c4F)cn3N2C1 [II-042]
Qualitative label: 1 (yes)

Compound: CCN1C(=O)c2c(O)c(=O)c(C(=O)NCc3c(F)cc(F)cc3F)cn2N2CCCC[C@@H]12 [Compound I-011]
Qualitative label: 1 (yes)

Compound: CC(C)N1C(=O)c2c(O)c(=O)c(C(=O)NCc3ccc(F)cc3F)cn2N2C[C@@H]3CC[C@@H](O3)[C@@H]12 [II-021]
Qualitative label: 1 (yes)

Compound: CCN1C(=O)c2c(O)c(=O)c(C(=O)NCc3ccc(F)cc3F)cn2N2CC[C@@H](C)C[C@@H]12 [II-023]
Qualitative label: 1 (yes)

Compound: CCN1C(=O)c2c(O)c(=O)c(C(=O)NCc3ccc(F)nc3F)cn2N2C[C@@H]3CC[C@@H](O3)[C@@H]12 [II-157]
Qualitative label: 0 (no)

Compound: CN1C(=O)c2c(O)c(=O)c(C(=O)NCc3cccc(Cl)c3F)cn2N2CCCC[C@@]12C [II-099]
Qualitative label: 0 (no)

Compound: CCN1C(=O)c2c(O)c(=O)c(C(=O)NCc3ccc(F)cc3F)cn2N2C[C@@H](COC)C[C@@H]12 [II-041]
Qualitative label: 0 (no)

Compound: CN1C(=O)c2c(O)c(=O)c(C(=O)NCc3cccc(Cl)c3F)cn2N2CCOC[C@@H]12 [II-108]
Qualitative label: 0 (no)

Compound: CCN1C(=O)c2c(O)c(=O)c(C(=O)NCc3ccc(F)cc3F)cn2N2C[C@@H](C)C[C@@H]12 [II-051]
Qualitative label: 0 (no)

Compound: CCN1C(=O)c2c(O)c(=O)c(C(=O)NCc3ccc(F)cc3F)cn2N2CC[C@H](C)C[C@@H]12 [II-071]
Qualitative label: 0 (no)

Compound: C[C@H]1CC[C@H]2N(C)C(=O)c3c(O)c(=O)c(C(=O)NCc4ccc(Cl)cc4F)cn3N2C1 [II-090]
Qualitative label: 0 (no)
